Entry source: PubChem BioAssay AID1919013

Tested on: LG0703-F498-PDC complex spheroid growth;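 note: luminescence taken as a proxy for viable cell amount; percent of DMSO vehicle control where 100% means growth equal to vehicle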
procedureDetails: Anticancer human tumor LG0703-F498-PDC patient-derived lung adenocarcinoma cell line growth inhibition [AhR]
testConditions: second compound 10 µM; first compound 3.16 µM; stronger effect = lower value
Listed molecules paired with reported viability, T/C
reportedMetric: viability, T/C (%)

[[record]]
molecule = "CC1(C)CCC(CN2CCN(c3ccc(C(=O)NS(=O)(=O)c4ccc(NCC5CCOCC5)c([N+](=O)[O-])c4)c(Oc4cnc5[nH]ccc5c4)c3)CC2)=C(c2ccc(Cl)cc2)C1 + Cc1ccccc1N=Nc1ccc(NC(=O)c2ccnn2C)c(C)c1"
measurementunits = "%"
quantitativeresult = 83.3

[[record]]
molecule = "COc1ccc([C@@H](O)c2cc(-c3ncnc4cc(N5CCOCC5)ccc34)c(F)cc2Cl)nn1 + Cc1ccccc1N=Nc1ccc(NC(=O)c2ccnn2C)c(C)c1"
measurementunits = "%"
quantitativeresult = 42.5

[[record]]
molecule = "CC(C)c1c(-c2ccccc2)nc2c(C#N)c[nH]n2c1=O + CC(CO)NC(=O)c1cc(-c2ccc(Cl)cc2)nn(-c2cnn(C)c2)c1=O"
measurementunits = "%"
quantitativeresult = 67.4

